Kindly supply the reported Population Fragmented Nuclei (%) values for the records listed here.
system: U2OS; assay: Multiplex assay against U2OS; format: toxicity, cell-based; settings: human, 48 h, 1 µM, compound concentration 1 uM, replicate 2
Value expressed in %; do not type the unit.

State the recorded Population Fragmented Nuclei (%) for this entry: O=C(c1cc2c(cc1F)OC(c1ccc(F)cc1)(c1ccc(Cl)cc1Cl)O2)N1CCOCC1 (centres undefined) 8

Another molecule to look at: `COc1ccccc1CN[C@H]1C2CCN(CC2)[C@H]1C(c1ccccc1)c1ccccc1` 5

Check `Cc1ccc(C)c(Oc2ccncc2C(=O)N2CCN(C3CC3)c3ccccc32)c1` too. 6

Then CCc1nn(CCCN2CCN(c3cccc(Cl)c3)CC2)c(=O)n1CCOc1ccccc1.Cl [NEFAZODONE HYDROCHLORIDE] ? 5

Measured values drawn from ChEMBL document CHEMBL4689842 for this set.
